protocol.description: In vitro simulated gastrointestinal digestion (SGD, INFOGEST 2.0): concentration and bioaccessibility by UHPLC-DAD-MSn
experimental.parameters: controls (without enzymes); initial solution
property.measured: Concentration, initial solution (IS) (µg/mL)
Only the number, expressed in µg/mL, is required.

Solved cases (6 shown):
# compound, uom, endpoint.value
rows = [
    ("O=C1C[C@@H](c2ccc(O)cc2)Oc2cc(O)cc(O)c21 [NAR, (+)-naringenin]", "µg/mL", 357.76),
    ("C[C@@H]1O[C@@H](O[C@H]2[C@H](Oc3cc(O)c4c(c3)O[C@H](c3ccc(O)cc3)CC4=O)O[C@H](CO)[C@@H](O)[C@@H]2O)[C@H](O)[C@H](O)[C@H]1O", "µg/mL", 251.44),
    ("C[C@@H]1O[C@@H](OC[C@H]2O[C@@H](Oc3c(-c4ccc(O)c(O)c4)oc4cc(O)cc(O)c4c3=O)[C@H](O)[C@@H](O)[C@@H]2O)[C@H](O)[C@H](O)[C@H]1O", "µg/mL", 326.19),
    ("Oc1cc(O)cc(O)c1", "µg/mL", 5218),
    ("O=c1cc(-c2ccc(O)cc2)oc2cc(O)cc(O)c12", "µg/mL", 9.33),
    ("O=c1c(O)c(-c2ccc(O)c(O)c2)oc2cc(O)cc(O)c12", "µg/mL", 39.89),
]

input: Quick one: Concentration, initial solution (IS) of O=C(CCc1ccc(O)cc1)c1c(O)cc(O)cc1O ?
output: 288.39

input: Report Concentration, initial solution (IS) for O=c1c(-c2ccc(O)cc2)coc2cc(O)ccc12 please.
output: 18.17

input: What value of measured Concentration, initial solution (IS) is listed for O=C(O[C@@H]1Cc2c(O)cc(O)cc2O[C@@H]1c1cc(O)c(O)c(O)c1)c1cc(O)c(O)c(O)c1 [EGCG, epigallocatechin-3-O-gallate] ?
output: 2068.93
